Overview of reported CC50 at 24 h across a group of molecules:
# assayName: Cytostatic activity against human HEL cells assessed as reduction in cell growth measured after 24 hrs
# Assay type: toxicity, cell-based
Form entry: value (µM) — number only.

molecule: CCCCCCCCCCCCCCCCOCCCOP(=O)(C/C=C/COc1cc(N)nc(N)n1)OCOC(=O)OC(C)C (stereo not given)
valueUnit: µM
CC50 at 24 h: 14.5

molecule: Nc1nc2c(ncn2COCCO)c(=O)[nH]1
valueUnit: µM
CC50 at 24 h: 470

Let's switch to this molecule now.
Give its CC50 at 24 h value. Item: CCCCCCCCCCCCCCCCOCCCOP(=O)(C/C=C(\COC(C)=O)COc1cc(N)nc(N)n1)OCOC(=O)OC(C)C (stereo not given)
2.32
